# System: HIV-1 infected and uninfected cells
# test.details: Classification of inhibitors by effect on viability of infected versus uninfected cells
# Format: cell-based
# conditions: 50 nM; high, moderate or poor
reported.endpoint: Selectivity

CC(C)c1cnn2c(NCc3ccc(-c4ccccn4)cc3)nc(NC[C@H](O)CO)nc12.O=C(O)/C=C/C(=O)O; Poor
CC[C@H](CO)Nc1nc(NCc2ccc(-c3ccccn3)cc2)n2ncc(C(C)C)c2n1; High
CC[C@H](CO)Nc1nc(NCc2ccc(-c3ccccn3)cc2)n2ncc(C(C)C)c2n1.O=C(O)/C=C/C(=O)O; High

###

# Test system: J1.1 cells (HIV-1 infected)
# test.details: Cell viability by trypan blue exclusion, 48 hours
# Format: cell-based
# conditions: 10 μM, 48 hours, HIV-1 infected
reported.endpoint: % Inhibition (percent dead cells) J1.1

Field: example entries. Status: answers known.
CN1C(=O)C(=C2Nc3ccccc3C2=NO)c2cccc(Br)c21; − (1-5%)
CCOc1ccnc2[nH]cc(-c3ccnc(N)n3)c12; +++ (~75%)
COc1ccnc2[nH]cc(-c3ccnc(N)n3)c12; + (~25%)
CC[C@H](CO)Nc1nc(Nc2cccc(-c3ccccn3)c2)c2ncn(C(C)C)c2n1; − (1-5%)
Nc1nccc(-c2c3c(O)ccnc3n3c(N)nccc23)n1; + (~25%)

Now let's try a different one.
Asked: Request the reported % Inhibition (percent dead cells) J1.1 associated with CC(C)Oc1ccnc2[nH]cc(-c3ccnc(N)n3)c12
Given back: +++ (~75%)

Source: patent US20120149708A1
